# tgt: T1, Human PD-1-His protein (Cat. #10377H08H, Sino Biological) (human, UniProt Q15116 25-167)
# T1 construct: Bought protein; also called hPD-1-His; hu PD-1-his; not shown: His tag of the bought protein
# assayOverview: SPR (Biacore), antibody captured on Protein A chip, PD-1 in flow
Below is a list of entries, each paired with its recorded Kd value.
experimentalEndpoint: Kd (µM)

binder: Hu33-7.IgG4AA (antibody, V domains shown, Full-length IgG4-AA, kappa) VH: EVQLVESGGGLVQPGGSLRLSCAASGFTFSSYAMSWVRQAPGKGLEWVATISGGGVDTYYQDNVQGRFTISRDNAKNSLYLQMNSLRAEDTAVYYCARPYGHGYFDVWGQGTTVTVSS VL: DIQMTQSPSSLSASVGDRVTITCRASQDINNFLNWYQQKPGGAVKLLIYYTSSLHSGVPSRFSGSGSGTDYTLTISSLQPEDFATYYCQQGNTLPWTFGGGTKVEIKR
experimentalEndpoint: Kd
measurementUnits: µM
numericResult: 0.0338
//
binder: Hu32a-57.IgG4AA (antibody, V domains shown, Full-length IgG4-AA, kappa) VH: EVQLVQSGAEVKKPGSSVKVSCKASGFTFSDYEIHWVRQAPGQGLEWIGLFDPETGGIVYNQKFKGRATLTADKSTSTAYMEFSSLRSEDTAVYYCTREGYNRDWYFDVWGQGTTVTVSS VL: DIVMTQTPLSLPVTPGEPASISCRSSQSLVHSTGNTYLEWYLQKPGQSPQLLIYKVSNRFSGVPDRFSGSGSGTDFTLKISRVEAEDVGVYYCFQGSHVPYTFGGGTKVEIKR
experimentalEndpoint: Kd
measurementUnits: µM
numericResult: 0.00785
//
binder: Hu32a-15.IgG4AA (antibody, V domains shown, Full-length IgG4-AA, kappa) VH: EVQLVQSGAEVKKPGSSVKVSCKASGGTFSDYEIHWVRQAPGQGLEWMGLFDPETGGIVYNQKFKGRVTITADKSTSTAYMELSSLRSEDTAVYYCAREGYNRDWYFDVWGQGTTVTVSS VL: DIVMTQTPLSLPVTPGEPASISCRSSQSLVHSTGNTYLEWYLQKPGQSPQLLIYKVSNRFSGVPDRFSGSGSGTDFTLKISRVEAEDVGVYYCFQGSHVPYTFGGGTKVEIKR
experimentalEndpoint: Kd
measurementUnits: µM
numericResult: 0.0514
